Taken from patent US20210122826A1.

- EXPERIMENTAL SYSTEM: T1, Human KLRG1 (human, UniProt Q96E93 1-195)
- T1 construct: also called hKLRG1
- T1 sequence: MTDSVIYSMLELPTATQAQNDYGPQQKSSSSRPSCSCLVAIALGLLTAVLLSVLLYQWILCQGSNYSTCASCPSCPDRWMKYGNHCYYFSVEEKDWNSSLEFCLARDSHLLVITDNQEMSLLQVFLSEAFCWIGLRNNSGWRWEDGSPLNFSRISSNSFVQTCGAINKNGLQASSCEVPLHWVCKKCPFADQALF
- PROCEDURE DETAILS: flow, Jurkat, 100 nM Ab
ASSAY METRIC: MFI normalized to WT
Enter the number alone.

Known results for binders:
BINDER: KW1.2.1 (antibody, V domains shown) VH: EVQLVESGGGLVQPGGSLRLSCAASGSTFSSYAMSWVRQAPGKGLEWVSTISGSGGSTYYADSVKGRFTISRDNSRNTLYLQMNSLRAEDTAVYYCARGGLIPSGFDYWGQGTLVTVSS VL: DIQMTQSPSSPSASVGDRVTITCRASQSISSYLNWYQQKPGKAPKLLIYAASSLLSGVPSRFSGSGSGTDFTLTISSLQPEDFATYYCQQTYSTPLTFGQGTKVEIK
MFI normalized to WT: 1.24
//
BINDER: KW1.3.12 (antibody, human IgG1, V domains shown) VH: EVQLVESGGGLVQPGGSLRLSCAASGFTFSSYAMSWVRQAPGKGLEWVSTISGSGGSTYYADSVKGRFTISRDNSRNTLYLQMNSLRAEDTAVYYCARGGLIPSGFDYWGQGTLVTVSS VL: DIQMTQSPSSLSASVGDRVTITCRASQSISSYLNWYQQKPGKAPKLLIYAASSLLSGVPSRFSGSGSGTDFTLTISSLQPEDFATYYCQQTYSAPLTFGQGTKVEIK
MFI normalized to WT: 1.25
//
BINDER: KM12.2.3 (antibody, human IgG1, V domains shown) VH: EVQLVESGGGLVQPGGSLRLSCAASGFTFSSYAMSWIRQAPGKGLEWVSAISGSGGSIYYADSVKGRFTISRDNSKNTLYLQMNSLRAEDTAVYYCARGYSDSYFYGPYYTFDYWGQGTLVTVSS VL: DIQMTQSPSSLSASVGDRVTITCRASQGISSYLNWYQQKPGKAPKLLIYAASSLQSGVSSRFSGSGSGTDFTLTISSLQPEDFATYYCQQSYNTPLTFGQGTKVEIK
MFI normalized to WT: 1.42

The record that follows has no MFI normalized to WT shown yet.
// MFI normalized to WT lookup, binder = KW9.3.3 (antibody, V domains shown) VH: EVQLVESGGGLVQPGGSLRLSCAASGFTFSSYAMSWVRQAPGKGLEWVSAISGSGGRTYYADSVKGRFTISRDNSKNTLYLQMNSLRAEDTAMYYCARGPGYMYLYGDSFFEYWGQGTLVTVSS VL: DIQMAQSPSSLSASVGDRVTITCRASQGISSYLNWYQQKPGKAPKLLIYAASSLQSGVPSRFSGSGYGTDFTLTISSLQPEDFATYYCQQSYSTPLTFGQGTKVEIK , result: 0.93
